assay-target: HLA-A1 (A*0101) (Homo sapiens, UniProt P04439, A114D/A174V/A182V/D101N/D185E/E176A/E190D/L180R/Q94H/R68K/S129P/T187R/V100A/V91M/W191G)
experimental-protocol: biochemical
Assay type: binding
pIC50: −log10 of the molar value. No end group written: not given here.

# sequence-code, pIC50
rows = [
    ("LKEYVLDLY [Peptide 78.0250]", "< 4.70"),
    ("EYRHYNYSVY [Peptide 78.0180]", "< 4.70"),
    ("ETKKGKAGY [Peptide 9015.0024]", "< 4.70"),
]

###

assay-target: A31 (A*3101) (Homo sapiens, UniProt P04439, A270S/D185E/E176V/E277Q/F33T/G231S/G80R/H175R/I121M/I218V/I322F/K168Q/L300P/L318F/M331R/P217A/Q94H/R138Q/T323A/T345S/T97I/V358M)
experimental-protocol: biochemical
Format: binding
pIC50: −log10 of the molar value. No end group written: not given here.
Reported pIC50 maps to class as: zone 1 (below 6), zone 2 (6 to below 7), zone 3 (7 or more)

# sequence-code, classification
rows = [
    ("ETNEALELK [Peptide 1556.68]", "zone 1"),
    ("GQVNCKGIYY [Peptide 88.0209]", "zone 1"),
    ("SQIQYWQLIR [Peptide 88.0199]", "zone 2"),
    ("ATNCTNKQR [Peptide 1589.20]", "zone 3"),
    ("VTYNSEVQR [Peptide 1589.29]", "zone 3"),
    ("QTRSLTEILK [Peptide 9012.0217]", "zone 1"),
    ("LLFYSKVRK [Peptide 78.0298]", "zone 2"),
    ("GVSIEWRLRR [Peptide 9017.0220]", "zone 2"),
    ("EFMSFLTALK [Peptide 1587.10]", "zone 1"),
    ("YVMAGVGSPK [Peptide 9012.0253]", "zone 1"),
    ("ETLNASPYK [Peptide 1589.39]", "zone 1"),
    ("FTAFLGAFKK [Peptide 88.0168]", "zone 1"),
    ("SQWIKYRCDR [Peptide 88.0136]", "zone 2"),
    ("SFFSRTWSR [Peptide 1587.16]", "zone 3"),
    ("VQFKSECEK [Peptide 88.0419]", "zone 1"),
]

###

assay-target: DRB1*1201 (Homo sapiens, UniProt P01903+P01911, A100R/A169T/D57E/D86V/F55L/H45Y/K41T/L162R/M171V/P40S/Q125H/Q178H/Q39Y/Q99D/R42G/S66L/T262R/V114A/V67L/W38E/Y59H/Y61H/Y89S)
experimental-protocol: biochemical
Format: binding
pIC50: −log10 of the molar value. No end group written: not given here.
The sequences listed here are annotated with their pIC50.

# sequence-code, pIC50
records = [
    ("GEIYIIEEDTCTMVT [Peptide 90.0202]", "< 4.70"),
    ("ESVFSSDEISFAGIV [Peptide 90.0195]", "< 4.70"),
    ("GNEIFNTSLFEPPPP [Peptide 68.0090]", "< 4.70"),
    ("TVEVQFDGDICNTMH [Peptide 90.0167]", "< 4.70"),
    ("DGVSHAQLPARRAEP [Peptide 1543.18]", "< 4.70"),
    ("GRAVCGGVLVHPQWV [Peptide 68.0062]", 4.78),
    ("SLSLGFLFLLFFWLD [Peptide 68.0022]", 5.91),
    ("SNLLSIPETCMVIEP [Peptide 89.0067]", 5.41),
]
